Form field: melting point (one value per entry).

// worked examples, melting point included
CCOC(=O)c1ccc2nccc(O)c2c1 :: 233 to 234 °C
NC(=O)CNC(=O)c1cccc(-c2ccc(F)c3cc(Cc4cccc(C(F)(F)F)c4)sc23)c1 :: 157 to 158 °C
CNS(=O)(=O)CC(=O)C=C(C)N :: 158 to 162 °C
CC(=NO)c1csc(S(N)(=O)=O)c1 :: 185 to 188 °C
COC(=O)c1cc(I)cnc1Cl :: 49 to 50 °C

Problem: Quick one: melting point for Cc1c(NC(=O)c2ccc(OC[C@@H]3CCCO3)cc2)ccc2cc(CNC[C@H]3CCCO3)cnc12 ?
Result: 92 to 94 °C

Problem: Also COc1cc2cc(N)cnc2cc1F , if possible.
Result: 153 °C

Problem: Quick one: CCOc1cc2c(cc1S(N)(=O)=O)C(CNC(=O)c1cc(Cl)ccc1OC)CCO2 (stereo unspecified)
Result: 204 to 205 °C

Problem: Also, C=CCc1cc(C2=NNC(=O)CC2)ccc1OCC(O)CNC(C)C (stereo unspecified) please.
Result: 94 to 96.5 °C

Problem: What do you get for CNC(=O)OCCN1C(=O)c2ccccc2C1=O ?
Result: 142 to 145 °C

Problem: CN(C)C(=O)C1=C(C(=O)Nc2ccc(Cl)cc2)CCCC1 , same question.
Result: 125 °C
